Each recorded value in this set is attributed to patent US9512107B2.

Hi there, I'd appreciate the recorded pIC50 for every entry that follows.
Target: IDH2 R172K (Homo sapiens, UniProt P48735, R172K)
Assay: IDH2 R172K enzymatic assay (NADPH cofactor depletion, diaphorase/resazurin readout)
Conditions: read-out: Enz R172K
pIC50: −log10 of the molar value.

Use these answered entries as a reference point.
FC(F)(F)c1cccc(-c2nc(Nc3cnoc3)nc(NC3COC3)n2)n1 :: 5.00 to 6.00
c1ccc(Nc2nc(NCc3ccccn3)nc(-c3ccccc3)n2)cc1 :: < 5.00
CC(C)(O)CNc1nc(Nc2ccnc(C(F)(F)F)c2)nc(-c2cccc(C(C)(F)F)n2)n1 :: 6.00 to 7.00
CC(C)Nc1nc(Nc2cccc(F)c2)nc(-c2cccc(N)n2)n1 :: > 7.00
OC1(CNc2nc(Nc3cc(F)cc(F)c3)nc(-c3cccc(C(F)(F)F)n3)n2)CC1 :: 6.00 to 7.00

With those in mind, consider the next compound.
Entry CC(C)(O)CNc1nc(Nc2ccnc(F)c2)nc(-c2cccc(C(F)(F)F)n2)n1 ; pIC50 = > 7.00

* * *

Target: IDH2 R140Q (Homo sapiens, UniProt P48735, R140Q)
Sequence (P48735 40-452 R140Q): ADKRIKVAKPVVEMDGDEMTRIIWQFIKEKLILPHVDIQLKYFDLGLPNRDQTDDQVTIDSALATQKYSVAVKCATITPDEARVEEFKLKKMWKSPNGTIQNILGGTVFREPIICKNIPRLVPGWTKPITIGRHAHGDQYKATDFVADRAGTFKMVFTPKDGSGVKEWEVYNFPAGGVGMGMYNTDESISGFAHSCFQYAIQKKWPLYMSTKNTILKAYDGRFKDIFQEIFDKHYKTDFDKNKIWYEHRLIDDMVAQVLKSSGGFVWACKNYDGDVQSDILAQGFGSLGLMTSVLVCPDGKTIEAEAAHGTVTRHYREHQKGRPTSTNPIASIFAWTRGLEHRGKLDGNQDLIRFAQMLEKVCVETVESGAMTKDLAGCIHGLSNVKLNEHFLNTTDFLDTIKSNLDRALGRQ
Experiment: IDH2 R140Q enzymatic assay (cofactor depletion, similar format)
Format: biochemical
Conditions: read-out: Enz R140Q
Result type: IC50

Cc1nc(-c2nc(Nc3cc(F)cc(F)c3)nc(NC(C)C)n2)co1 :: < 0.1 µM

Please supply IC50 for each of the following items, keeping them in order.
1. CC(C)Nc1nc(Nc2ccnc(C(F)(F)F)c2)nc(-c2cccc(CN)c2)n1
2. CC(C)Nc1nc(Nc2ccnc(C3(O)CC3)c2)nc(-c2cccc(C(F)(F)F)n2)n1
3. CCCn1cc(Nc2nc(NC(C)C)nc(-c3cccc(C(F)(F)F)n3)n2)cn1
4. CC(C)Nc1nc(Nc2ccnc(C#N)c2)nc(-c2cccc(Cl)n2)n1
5. O=C(Nc1nc(Nc2ccccc2)nc(-c2ccccc2)n1)C1CCCO1 (stereo not shown)
6. COCC(C)Nc1nc(Nc2ccccc2)nc(-c2ccccc2)n1 (stereo not shown)

[A]
0.1 to 1 µM
0.1 to 1 µM
0.1 to 1 µM
0.1 to 1 µM
0.1 to 1 µM
< 0.1 µM

* * *

Tested on: U87MG pLVX-IDH2 R140Q-neo cells
Assay: U87MG pLVX-IDH2 R140Q-neo cell based assay, 2-HG in media by LC-MS at 48 hours
Details: Homo sapiens, U-87 MG
Result type: IC50

Use these answered entries as a reference point.
CC(C)Nc1nc(Nc2cncc(C(F)(F)F)c2)nc(-c2cccc(C(F)(F)F)n2)n1 :: < 100 nM
O=C1C=C(Nc2nc(Nc3ccccc3)nc(-c3ccccc3)n2)CCC1 :: 100 to 1000 nM
CC(C)(C)Nc1nc(Nc2ccnc(C3(C#N)CC3)c2)nc(-c2cccc(C(C)(F)F)n2)n1 :: < 100 nM

Please supply IC50 for each of the following items, keeping them in order.
1. CC(C)Nc1nc(Nc2cccc(S(=O)(=O)N(C)C)c2)nc(-c2ccccc2)n1
2. CC(C)Nc1nc(Nc2cccnc2)nc(-c2ccccc2)n1
3. CC(C)Nc1nc(Nc2cccc(S(=O)(=O)NC(C)(C)C)c2)nc(-c2ccccc2)n1

[A]
1. < 100 nM
2. 100 to 1000 nM
3. 1000 to 10000 nM
